Below: a set of entries, each annotated with reported protein stability index.
B1: GALNT9 (parent)
chain: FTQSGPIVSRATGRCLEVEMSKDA

variants of: B1; experiment: protein stability index of a GFP-peptide fusion (GPS, HEK-293T) (PSI 1-6); higher = more stable; settings: c terminus: a fixed tail appended;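 note: lentivirally expressed fusions sorted by FACS into six bins by GFP to DsRed ratio, PSI derived from sequencing read proportions per bin multiplied by bin number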
Reply with the value as a number alone.

Before answering, review these 2 worked examples.
Reported protein stability index, variant FTQSGPIVSRATGRCAEVEMSKDA [L16A] : ____ 1.96

What protein stability index value was documented for this variant, FTQSGPIVSRATGRCLEVDMSKDA [E19D] ? 2.02

Here's the next entry for you.
Need protein stability index of FTQSGPICSRATGRCLEVEMSKDA [V8C] , thanks. 2.04
